system: NCI-H522 lung; experiment: NCI tumour cell line growth inhibition, 48 h; in the data active means GI50 below about 0.43 µM; inactive means the rest
Response enum: active, inactive

>>> category("CCCCN=C(N)c1ccc(OCCSCCOc2ccc(C(N)=NCCCC)cc2)cc1")
"inactive"
>>> category("CCN1C(=O)CNc2ncc(-c3ccc(-c4ncn[nH]4)nc3C)nc21")
"active"

Next compound, please.
Task: Which outcome was assigned to `CCOC(=O)Sc1ncnc2nc[nH]c12` in this test?
Output: inactive

---

system: SN12C renal; assay: NCI tumour cell line growth inhibition, 48 h
endpoint_label: log10 of TGI (log10 of the value in µM)
All values: log10 TGI [µM].

>>> endpoint_value("Cc1ccc(Nc2nc3c(s2)C(=O)c2ccccc2C3=O)c(C)c1")
1.49
>>> endpoint_value("CCN(CC)c1ccc(C(=N)c2ccc(N(CC)CC)cc2)cc1")
0.76
>>> endpoint_value("COc1cc(C(=O)NNC(=O)c2cc(Br)ccc2NC(=O)c2cccs2)cc(OC)c1OC")
1.78
>>> endpoint_value("C[N+](C)(C)CC1CCCC(C[N+](C)(C)C)C1=O (stereo unspecified)")
0.18
>>> endpoint_value("O=c1cccccc1NCCCNc1cccccc1=O")
1.51

# log10 of TGI of `CCN(CC)c1sc(N(CC)CC)c2c1SSSSS2` = -0.06

# log10 of TGI of `CCSc1nnc(Sc2c3ccccc3nc3ccccc23)s1` = 1.78

# log10 of TGI of `COc1cc2c(cc1C)NC(=O)/C2=C/c1cccnc1` = 1.47

---

tested on: SK-MEL-28 melanoma; experiment: NCI tumour cell line growth inhibition, 48 h
Some compounds, each annotated with its measured TGI.
I only need the number, in µM, no unit after it.

>>> endpoint_value("CCC[CH2][Sn]1([CH2]CCC)[O]C(=O)C(C(C)C)N=Cc2ccccc2[O]1 (stereo not given)")
0.819
>>> endpoint_value("NC1C/C(=N\\O)c2c(Cl)sc(Cl)c21 (stereo not given)")
33.6

# TGI of CC(=O)OC1C=C(C=O)C(O)(C=O)C2(C)CCCC(C)(C)C12 (stereo not given) = 3.42

# TGI of CCN(CC)CCCC(C)Nc1c(C)cnc2cc(Cl)c(C)cc12 (stereo not given) = 8.99

# TGI of `CC(=O)OC[C@]12CC[C@H]3[C@@H](C[C@H]4O[C@]45[C@@H](O)C=CC(=O)[C@]35C)[C@@H]1CC[C@@H]2[C@H](C)[C@H]1CC(C)=C(C)C(=O)O1` = 1.09

# TGI of `Cc1cc(C)nc(NS(=O)(=O)c2ccc(Nc3c4ccccc4nc4c(C(=O)Nc5ccc(S(=O)(=O)Nc6cc(C)on6)cc5)cccc34)cc2)n1` = 52.3

---

system: NCI-H23 lung; experiment: NCI tumour cell line growth inhibition, 48 h
Some molecules, each annotated with its measured TGI.

Some entries whose results are on file:
>>> endpoint_value("CC1=NN(c2ccccc2)C2(C1)C(Cl)C(=O)N2c1nc2ccccc2s1 (stereo unspecified)")
"77.6 µM"
>>> endpoint_value("COc1ccc(C2C(C(=O)O)=C(CO)Oc3cc4c(cc32)OCO4)cc1 (stereo unspecified)")
"> 100 µM"
>>> endpoint_value("NC(=O)NC1NC(=O)NC1=O (stereo unspecified)")
"> 100 µM"
>>> endpoint_value("CCOC(=O)NC(=O)c1cn(CCOCCOC(=O)NCCCCCCNC(=O)OCCOCCn2cc(C(=O)NC(=O)OCC)c(=O)[nH]c2=O)c(=O)[nH]c1=O")
"> 100 µM"
>>> endpoint_value("COc1ccc(C(=O)COc2cccc(/C=C3\\COc4ccc5ccccc5c4C3=O)c2)cc1")
"> 100 µM"

# TGI of `C/C(Cl)=N/OC(=O)Nc1ccc(F)c([N+](=O)[O-])c1` = 48.5 µM

# TGI of CC1=NN(c2cccc(S(=O)(=O)O)c2)C2(C1)C(Cl)C(=O)N2c1nc2ccccc2s1 (stereo unspecified) = 13.5 µM

# TGI of CC(=O)OC1C=C(C=O)C(O)(C=O)C2(C)CCCC(C)(C)C12 (stereo unspecified) = 4.92 µM

Measured values drawn from PubChem BioAssay (NCI) for this set.
